Reference for the values: PubChem BioAssay (EPA / NIEHS)

# assay.target: Retinoic acid receptor RXR-alpha (Homo sapiens) (UniProt P19793)
# Sequence (P19793 whole entry, looked up): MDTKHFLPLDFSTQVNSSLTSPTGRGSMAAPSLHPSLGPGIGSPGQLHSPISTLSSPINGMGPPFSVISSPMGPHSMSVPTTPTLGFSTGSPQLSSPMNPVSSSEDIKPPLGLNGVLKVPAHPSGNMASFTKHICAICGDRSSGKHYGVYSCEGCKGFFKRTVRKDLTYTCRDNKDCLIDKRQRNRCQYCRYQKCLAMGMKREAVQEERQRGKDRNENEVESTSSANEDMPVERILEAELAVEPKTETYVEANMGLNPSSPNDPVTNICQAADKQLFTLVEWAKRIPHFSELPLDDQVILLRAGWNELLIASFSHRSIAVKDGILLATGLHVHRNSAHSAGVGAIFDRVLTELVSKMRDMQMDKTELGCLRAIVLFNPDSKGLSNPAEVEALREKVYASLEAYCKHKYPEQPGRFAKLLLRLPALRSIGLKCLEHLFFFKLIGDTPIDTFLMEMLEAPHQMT
# method: OT_NURR1_NURR1RXRa_0480: Odyssey Thera (OT) 8-hour HEK293T Protein Complementation Assay for Nurr1/retinoid X receptor (RXR) (AID 2283385)
Results filed as inconclusive are left out. Calls of active or inactive are those of the source. Rule for the calls: active = hit-call score of the fitted dose curve at least 0.9, where 1 is the maximum; inconclusive = response in the unintended direction; inactive = score below 0.9.
Classes to choose from: True (active), False (inactive)

// outcome(item) with item = C[C@]12CC[C@H]3C(=CCc4cc(O)ccc43)[C@@H]1CCC2=O
False

Then what about the compound CC(=O)CCC(C)C ?
False

Thanks! And CCCCCCCC/C=C\CCCCCCCC(=O)N(C)CC(=O)O ?
False

Another compound to look at: CCOC(=O)C1CC(=O)C(=C(O)C2CC2)C(=O)C1 (stereo not given)
False

Again, but for CC(C)OC=O
False

Then what about the compound Cc1ccc([N+](=O)[O-])c(C)c1 ?
False

Further, for CCN=c1cc2oc3cc(NCC)c(C)cc3c(-c3ccccc3C(=O)OCC)c-2cc1C ?
True

Subsequent entry: CCCCOC(=O)[C@H](C)O
False

Next compound up: CCCCCCCC/C=C\CCCCCCCC(=O)OCC(O)CO (stereo not given)
True

Further, for COCCOCCC[Si](C)(O[Si](C)(C)C)O[Si](C)(C)C ?
True
